Ref: paper PMC8809517

Target: T1, GFP-9S library array, motif 4 ND N98D;D124A (synthetic construct, N98D;D124A)
T1 chain: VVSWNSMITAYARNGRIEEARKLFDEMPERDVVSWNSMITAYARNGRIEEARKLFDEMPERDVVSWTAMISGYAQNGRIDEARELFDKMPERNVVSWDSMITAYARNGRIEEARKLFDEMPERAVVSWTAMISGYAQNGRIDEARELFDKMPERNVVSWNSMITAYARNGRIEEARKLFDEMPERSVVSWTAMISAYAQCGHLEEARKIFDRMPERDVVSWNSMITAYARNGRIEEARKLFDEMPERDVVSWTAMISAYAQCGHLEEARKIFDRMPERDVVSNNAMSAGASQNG
Test: high-throughput RNA pulldown from lysate on Ni-NTA beads; HRP: 50 mM Tris pH 8, 150 mM NaCl, 1 mM beta-mercaptoethanol, 50 ug/ml BSA, 3 ug/ml yeast RNA, 0.5% heparin; ITC and FP: Tris pH 8, 200 mM KCl, 5% glycerol; MST: 50 mM Tris pH 8, 200 mM NaCl, 1 mM DTT, BSA, heparin, 0.05% Tween 20
Details: tags: N-terminal His-eGFP; label: 5' Cy5
outcome.measure: Kd (nM)
Numbers only, in nM.

[[record]]
binder = "AUUACACGUGA (ssRNA) [Cy5-rpoA]"
outcome_measure = "Kd"
unit_text = "nM"
value_reported = 103


Then this binder:
Qu. Return reported Kd; argument: AUUAGACGUGA (ssRNA) [Cy5-rpoA-G]
Ans. 114
